B1: CSTF3 (parent)
chain: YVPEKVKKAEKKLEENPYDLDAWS

- Variants of: B1
- PROTOCOL SUMMARY: protein stability index of a GFP-peptide fusion (GPS, HEK-293T) (PSI 1-6); higher = more stable;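 further: lentivirally expressed fusions sorted by FACS into six bins by GFP to DsRed ratio, PSI derived from sequencing read proportions per bin multiplied by bin number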
- MEASUREMENT SETUP: c terminus: a fixed tail appended
QUANTITY KIND: protein stability index

> print(dat)
    mutant.label            quantity.kind  result
 1          P17D  protein stability index    3.55
 2           K7Q  protein stability index       2
 3          S24H  protein stability index    1.95
 4          L20M  protein stability index    1.91
 5           K8Y  protein stability index    1.72
 6           Y1K  protein stability index    5.08
 7           K7V  protein stability index    1.91
 8          L20G  protein stability index    2.15
 9           Y1L  protein stability index    4.43
10          E10P  protein stability index       2
11           Y1A  protein stability index     5.5
12           K5N  protein stability index     3.5
13          Y18C  protein stability index    2.88
14          E15Q  protein stability index    3.42
15          P17C  protein stability index    2.34
16          Y18A  protein stability index    2.62
17          N16C  protein stability index    1.67
18          K12M  protein stability index     2.6
19          E15S  protein stability index    3.34
20           A9I  protein stability index    2.59
21          W23A  protein stability index    1.81
22          D21V  protein stability index    1.83
